B1: TMEM106C (parent)
chain: FTGRDSITCLTCQGTGYIPTEQVN

Variants of: B1
Experiment: protein stability index of a GFP-peptide fusion (GPS, HEK-293T) (PSI 1-6); higher = more stable;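 further: lentivirally expressed fusions sorted by FACS into six bins by GFP to DsRed ratio, PSI derived from sequencing read proportions per bin multiplied by bin number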
Details: c terminus: a fixed tail appended
I'd appreciate it if you could supply protein stability index values for the items below.
Give bare numbers.

T11S	2.01
S6C	1.99
Q13F	2.17
S6A	2.27
I18W	1.86

Lab note: each variant below needs its protein stability index filled in.
1. Q22K
2. T11K
3. V23W
4. G16V
5. T20G
6. T8H
7. I18C

[reply]
1: 1.85; 2: 1.7; 3: 1.87; 4: 1.85; 5: 1.45; 6: 2.28; 7: 1.91

Lab note: each variant below needs its protein stability index filled in.
1. I18T
2. T2S

[reply]
1. 3.01
2. 2.07

Lab note: each variant below needs its protein stability index filled in.
1. T15V
2. E21H
3. S6Q
4. T11Q
5. E21K
6. G16N
7. C9A
8. G16Y

[reply]
1: 2.04; 2: 1.79; 3: 2.05; 4: 1.85; 5: 1.65; 6: 1.49; 7: 2; 8: 2.08

Lab note: each variant below needs its protein stability index filled in.
1. T8S
2. G3A
3. Q13W

[reply]
1. 2.4
2. 2.79
3. 2.52

Cited source: the supplement of paper PMC10567573
